pIC50: −log10 of the molar value.
Compiled from multiple publications: pIC50 readings for σ-receptor (Rattus norvegicus, UniProt Q9R0C9).
Class Met: pIC50 at least 8. Class Not met: pIC50 below 8.

Take a look at these entries with their results.
- COMPOUND: "O=C1COc2ccccc2C(=O)N1CCCCN1CCC(c2ccc(Cl)cc2)CC1"
  QUALITATIVE_LABEL: "Met"
- COMPOUND: "O=C1CSc2ccccc2C(=O)N1CCCCCN1CCC(c2ccccc2)CC1"
  QUALITATIVE_LABEL: "Met"
- COMPOUND: "CN(CCC1COc2ccccc2C1=O)CC1CCCCC1 (centres unmarked)"
  QUALITATIVE_LABEL: "Met"

Q: Please check the record O=C1COc2ccccc2C(=O)N1CCCCCN1CCC(c2ccccc2)CC1 and state if its pIC50 is at or above 8.
A: Met

Q: Item: CN(CCC1CCc2ccccc2C12OCCO2)CC1CC1 (centres unmarked)
A: Not met

Q: Item: C(=C/c1ccccc1)/CC1CCCCN1CC1CC1 (centres unmarked)
A: Not met

Q: Item: O=C1CSc2ccccc2C(=O)N1CCCCN1CCC(c2ccccc2)CC1
A: Met

Q: Item: O=C1COc2ccccc2CN1CCCCN1CCC(c2ccc(Cl)cc2)CC1
A: Not met

Q: Item: O=C1COc2ccccc2C(=O)N1CCCCN1CCC(c2ccccn2)CC1
A: Not met
